Assay: NCI Yeast Anticancer Drug Screen. Data for the bub3 strain (AID 167)
Settings: S. cerevisiae bub3 mutant strain, at 5.0 µM (retest, dose inferred, filed as 0.5)
About 79,000 compounds went through this panel and 15% of them were active in at least one assay; those are over-represented in the sample as a whole. Activity calls are given as the source filed them. Rule as the data show it: active = growth inhibition above about 70%; inactive = the rest.
Labels: 1 (yes) = active, 0 (no) = inactive

>  <compound>
CC(C)(C)CCCC(C(=O)O)c1ccccc1 (stereo unspecified)

>  <discreteLabel>
0 (no)

$$$$
>  <compound>
O=[N+]([O-])c1cc(NC(=S)SCc2ccccc2)ccc1Cl

>  <discreteLabel>
0 (no)

$$$$
>  <compound>
CCCCCN(CCCCC)C(C)C(=O)c1ccc2cc(Br)c3ccccc3c2c1 (stereo unspecified)

>  <discreteLabel>
0 (no)

$$$$
>  <compound>
CCCCCCCCCCOC(=O)c1cc[n+](C)cc1

>  <discreteLabel>
0 (no)

$$$$
>  <compound>
Oc1cc(-[n+]2ccc3ccccc3c2)c(O)c2ccccc12

>  <discreteLabel>
0 (no)

$$$$
>  <compound>
Nc1cc(Cl)ccc1S

>  <discreteLabel>
0 (no)

$$$$
>  <compound>
Cc1c(NC(=O)CCl)c(=O)oc2c(C)c3occc(=O)c3cc12

>  <discreteLabel>
0 (no)

$$$$
>  <compound>
C[C@H]1CC[C@@H]2[C@@H](C)[C@H]3[C@H](C[C@H]4[C@@H]5CC=C6C[C@@H](O)CC[C@]6(C)[C@H]5CC[C@]34C)N2C1

>  <discreteLabel>
0 (no)

$$$$
>  <compound>
COc1ccc2[nH]c3ccc4cc[n+](CCN5CCC(C6CCN(CC[n+]7ccc8ccc9[nH]c%10ccc(OC)cc%10c9c8c7)CC6)CC5)cc4c3c2c1

>  <discreteLabel>
0 (no)

$$$$
>  <compound>
CCc1cc2c(c3[nH]ccc13)[C@@H](C)C[C@H]2C

>  <discreteLabel>
0 (no)

$$$$
>  <compound>
CC1SC(c2ccc(Cl)cc2)N2C(=O)C(C)SC(c3ccc(Cl)cc3)N2C1=O (stereo unspecified)

>  <discreteLabel>
1 (yes)

$$$$
>  <compound>
O=C(Oc1ccc(Cl)cc1)Oc1ccc(Cl)cc1

>  <discreteLabel>
0 (no)

$$$$
>  <compound>
O=C1CCC(Cc2ccc(Br)cc2)C(=O)N1 (stereo unspecified)

>  <discreteLabel>
0 (no)

$$$$
>  <compound>
CCCC(C(=O)OCCNC1CCCCC1)c1ccccc1 (stereo unspecified)

>  <discreteLabel>
0 (no)

$$$$
>  <compound>
CCCCNc1cccc2ncccc12

>  <discreteLabel>
0 (no)

$$$$
>  <compound>
CN1CCN(CCCCN2c3ccccc3Sc3ccc(C(=O)c4ccccc4)cc32)CC1

>  <discreteLabel>
0 (no)

$$$$

* * *

Test: NCI Yeast Anticancer Drug Screen. Data for the cln2 rad14 strain (AID 165);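 also: 0% = growth equal to vehicle treated cultures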
Details: S. cerevisiae cln2 rad14 strain, at 5.0 µM (retest, dose inferred, filed as 0.5)
Description: Growth inhibition of yeast strains with defined genetic alterations is measured as a screen for potential anti-cancer activity. Selected strains with alterations in DNA damage repair or cell cycle control were exposed to compounds and growth inhibition was measured relative to vehicle treated controls. The strain used in this assay is cln2 rad14
Compounds without any hit were thinned out: in the full panel of roughly 79,000, 15% have a hit. Activity calls are given as the source filed them. Cut-off read from the data, not from the text of the source: active = growth inhibition above about 70%; inactive = the rest. *1 amine or outer side, *2 acyl side, *3 side chain or, on linkers, in order; H or OH if unused. Where a SMILES comes first, the peptide text is derived from it. Bridges are numbered along the chain shown (N, C = ends). Roman numbers before positions name the chains, in order. [ ]: non-standard residue; d: D form. Actinocin(9to1) = Cc1c2oc3c(C)ccc(C(=O)[*:1])c3nc-2c(C(=O)[*:2])c(N)c1=O; NMeV = CN[CH](C(=O)O)C(C)C; Pip = O=C(O)[CH]1CCCCN1; Sar = CNCC(=O)O
Labels: 1 for active, 0 for inactive

>  <compound>
CC1OC(Oc2c(-c3ccc(O)c(O)c3O)oc3cc(O)ccc3c2=O)C(O)C(O)C1O (stereo unspecified)

>  <discreteLabel>
0

$$$$
>  <compound>
CCOC(=O)C1=C(Nc2ccc(Cl)c(Cl)c2)OC/C1=N\NS(=O)(=O)c1ccc(C)cc1

>  <discreteLabel>
0

$$$$
>  <compound>
C1CCC(C2CCC(N3CCCCC3)CC2)CC1 (stereo unspecified)

>  <discreteLabel>
0

$$$$
>  <compound>
COc1ccc(SC2=C(N(C)C(C)=O)C(=O)c3ccccc3C2=O)cc1

>  <discreteLabel>
1

$$$$
>  <compound>
FC1(F)C2=C(SC3=C(S2)C(F)(F)C3(F)F)C1(F)F

>  <discreteLabel>
0

$$$$
>  <compound>
CCOC(=O)C1=C(C)Oc2cc3c(cc2C1c1cc(OC)c(OC)c(OC)c1)OCO3 (stereo unspecified)

>  <discreteLabel>
0

$$$$
>  <compound>
CC[n+]1c(/C=C/c2ccc(N(C)C)cc2)ccc2ccccc21

>  <discreteLabel>
0

$$$$
>  <compound>
CCCCC(O)(c1ccccc1)C(O)(c1ccccc1)c1c(F)c(F)c(F)c(F)c1F (stereo unspecified)

>  <discreteLabel>
0

$$$$
>  <compound>
CC1=C(C(=O)Nc2ccc([N+](=O)[O-])cc2)C(c2ccccc2F)C(C(=O)Nc2ccc([N+](=O)[O-])cc2)=C(C)N1

>  <discreteLabel>
0

$$$$
>  <compound>
CCN(CC)CCNC(=O)c1ccc2c(c1O)C(=O)c1ccccc1C2=O

>  <discreteLabel>
0

$$$$
>  <compound>
CC(C)(C)c1ccc(C(C)(C)C)cc1

>  <discreteLabel>
0

$$$$
>  <compound>
CCCCCCCCCCCCCCCC[N+](C)(C)CC(=O)O

>  <discreteLabel>
0

$$$$
>  <compound>
Cc1ccc(O)c(N=Nc2ccc(Cl)cc2)c1

>  <discreteLabel>
0

$$$$
>  <compound>
COc1c(O)ccc2c1CN1CCc3cc4c(cc3C1C2)OCO4 (stereo unspecified)

>  <discreteLabel>
0

$$$$
>  <compound>
COC12C=CC(CC1)C1=C2C(=O)c2nc(C)c(C)nc2C1=O (stereo unspecified)

>  <discreteLabel>
0

$$$$
>  <compound>
Nc1ccc(S(=O)(=O)Nc2cc(Cl)cc(Cl)c2)cc1

>  <discreteLabel>
0

$$$$
>  <compound>
COc1ccc(NS(=O)(=O)c2ccc(N=Cc3c4ccccc4nc4cc(Cl)ccc34)cc2)nn1

>  <discreteLabel>
0

$$$$
>  <compound>
Cc1cc(I)ccc1NC(=S)Nc1ccccc1F

>  <discreteLabel>
0

$$$$
>  <compound>
CCOC(=S)SSC(=S)NCCNC(=S)SSC(=S)OCC

>  <discreteLabel>
0

$$$$
>  <compound>
CC(C)OC1=C(Cl)C(=O)c2c(cccc2[N+](=O)[O-])C1=O

>  <discreteLabel>
0

$$$$
>  <compound>
O=C(C[n+]1ccccc1Cl)c1ccc(Oc2ccc(C(=O)C[n+]3ccccc3Cl)cc2)cc1

>  <discreteLabel>
0

$$$$
>  <compound>
O=C1c2ccccc2-c2nnc3c(c21)Cc1ccccc1C3

>  <discreteLabel>
0

$$$$
>  <compound>
O=C(N/N=C/c1ccc2c(c1)OCO2)c1ccc([N+](=O)[O-])cc1

>  <discreteLabel>
0

$$$$
>  <compound>
CCOC(=O)CC(N)CC(=O)OCC

>  <discreteLabel>
0

$$$$
>  <compound>
CC12OC(=O)C(C(N)=O)=C1C=C(c1ccccc1)CC2c1ccccc1 (stereo unspecified)

>  <discreteLabel>
0

$$$$
>  <compound>
CC(=O)[O-].[Mn+3].[O-]c1ccc(Cl)cc1C=NCCN=Cc1cc(Cl)ccc1[O-]

>  <discreteLabel>
0

$$$$
>  <compound>
CC(C)c1ccc2c(c1)CC[C@H]1[C@](C)(CN)CCC[C@]21C

>  <discreteLabel>
0

$$$$
>  <compound>
O=C(CCl)NC(=O)N(/N=C/c1ccco1)c1ccccc1

>  <discreteLabel>
0

$$$$
>  <compound>
CC(=O)N1C(c2[nH]c3ccccc3c2Cc2ccccc2)CCN1c1ccccc1 (stereo unspecified)

>  <discreteLabel>
0

$$$$
>  <compound>
CC(C)(C)N1C(=O)C(Cl)(C#N)C1c1ccccc1 (stereo unspecified)

>  <discreteLabel>
0

$$$$
>  <compound>
Cc1c2oc3c(C)ccc(C(=O)NC4C(=O)NC(C(C)C)C(=O)N5CCCCC5C(=O)N(C)CC(=O)N(C)C(C(C)C)C(=O)OC4C)c3nc-2c(C(=O)NC2C(=O)NC(C(C)C)C(=O)N3CCCCC3C(=O)N(C)CC(=O)N(C)C(C(C)C)C(=O)OC2C)c(N)c1=O (stereo unspecified) (I: TV[Pip][Sar][NMeV] / II: TV[Pip][Sar][NMeV]; ester I:1-I:C, II:1-II:C; linker I:N-II:N via Actinocin(9to1); configuration not given here)

>  <discreteLabel>
0

$$$$
>  <compound>
Oc1c(Cl)cc(Cl)cc1C=NCCSc1ccc(Cl)cc1

>  <discreteLabel>
0

$$$$
>  <compound>
CSC(SC)C(SC)SC

>  <discreteLabel>
0

$$$$
>  <compound>
C#CCCCCCOC(=O)c1cc([N+](=O)[O-])cc([N+](=O)[O-])c1

>  <discreteLabel>
1

$$$$
>  <compound>
Cc1ccc(/C=N/NC(N)=S)cc1C

>  <discreteLabel>
0

$$$$
>  <compound>
Cc1cc([N+](=O)[O-])c2nnnn2c1

>  <discreteLabel>
0

$$$$
>  <compound>
CC(C)C(C)(C(=O)O)C(C)C

>  <discreteLabel>
0

$$$$
>  <compound>
CC(C)C[P+](c1ccccc1)(c1ccccc1)c1ccccc1

>  <discreteLabel>
0

$$$$
>  <compound>
COc1ccc(C(=O)C2OC2c2ccccc2)cc1 (stereo unspecified)

>  <discreteLabel>
0

$$$$
>  <compound>
Cc1ccccc1C(CC(=O)O)C(C)c1ccccc1 (stereo unspecified)

>  <discreteLabel>
0

$$$$
>  <compound>
CCCCCCCNC1CCCc2cc(OC)ccc21 (stereo unspecified)

>  <discreteLabel>
0

$$$$
>  <compound>
c1ccc2cc3c(cc2c1)Nc1c2ccccc2nc2cccc-3c12

>  <discreteLabel>
0

$$$$
>  <compound>
Cc1cc(Br)cc(C(=O)Cl)c1O

>  <discreteLabel>
0

$$$$
>  <compound>
CC(C)(C)N1OC2(c3ccccc3)OC3N(C(C)(C)C)OC4(c5ccccc5)OC1C2(c1ccccc1)C34c1ccccc1 (stereo unspecified)

>  <discreteLabel>
0

$$$$
>  <compound>
C=CS(=O)(=O)Cc1ccc(Cl)cc1

>  <discreteLabel>
0

$$$$
>  <compound>
CSC(=S)NN=C(c1ccccc1)c1ccccc1

>  <discreteLabel>
0

$$$$
